Taken from PubChem BioAssay AID690.

# Lookup of reported inhibition keyed by entry
Target or test system: Alkaline phosphatase, placental type (Homo sapiens) (UniProt P05187)
Sequence (P05187 whole entry, looked up): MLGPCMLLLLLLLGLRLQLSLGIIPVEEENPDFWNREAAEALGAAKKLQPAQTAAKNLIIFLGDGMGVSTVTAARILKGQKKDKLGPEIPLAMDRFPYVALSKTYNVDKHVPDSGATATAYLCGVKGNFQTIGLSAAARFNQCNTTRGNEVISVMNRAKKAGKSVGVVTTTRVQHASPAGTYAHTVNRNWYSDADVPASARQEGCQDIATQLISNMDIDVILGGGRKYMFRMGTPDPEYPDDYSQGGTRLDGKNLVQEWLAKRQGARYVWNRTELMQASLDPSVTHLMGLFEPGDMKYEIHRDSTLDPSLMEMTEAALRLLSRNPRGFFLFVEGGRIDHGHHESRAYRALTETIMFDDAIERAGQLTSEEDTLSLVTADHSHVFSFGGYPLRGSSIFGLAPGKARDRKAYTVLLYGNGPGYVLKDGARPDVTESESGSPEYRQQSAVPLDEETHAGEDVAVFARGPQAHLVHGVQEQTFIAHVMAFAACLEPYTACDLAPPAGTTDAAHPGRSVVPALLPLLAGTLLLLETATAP
Assay details: PLAP enzyme inhibitors, biochemical, luminescence, HTS (AID 690)
Condition: purified PLAP, luminescent substrate; at 20 µM; stronger effect = higher value
Screen size: about 96,000 compounds; about 80 (0.08%) were called active. A selection follows. Potency and affinity values are given separately.

Worked examples follow.
CCC(=O)Nc1cccc(C(=O)/C=C/c2ccccc2)c1
-3.5% (inactive)
O=C(NC1CCCCCC1)c1nc2ncccn2n1
2.9% (inactive)
COc1ccc(CNc2cc([N+](=O)[O-])ccc2OC)cc1
31.1% (inactive)

(Q) Which inhibition is listed for `O=C(Cc1n[nH]c(=O)[nH]c1=O)N/N=C/c1ccccc1` ?
(A) -5.4% (inactive)

(Q) Return reported inhibition; argument: COCCNC(=O)C(c1cccc(OC)c1)N(C(=O)Cn1nnc2ccccc21)c1cccnc1 (stereo not drawn)
(A) -24% (inactive)

(Q) For the molecule `O=C(Cc1cccs1)NCc1ccc(F)cc1` , what inhibition is on record?
(A) -6% (inactive)

(Q) Recorded inhibition of CC(=O)NC1C(=O)N=C(SCC(=O)NC(C)c2ccccc2)NC1=O (stereo not drawn) , please.
(A) -18.8% (inactive)

(Q) For the molecule shown here, CCc1ccc(C(=O)COC(=O)C(Cc2ccccc2)NC(=O)c2ccc(Cl)cc2)cc1 (stereo not drawn) , give the reported inhibition.
(A) -8.9% (inactive)

(Q) If you can, please state the reported inhibition value of CN(C)C(C(=O)NC1CCCCC1)c1ccc(Cl)cc1 (stereo not drawn) .
(A) -18% (inactive)

(Q) # inhibition lookup, item `Cc1cc2cc(CN(CCCO)S(=O)(=O)c3cccc4nsnc34)c(=O)[nH]c2cc1C`
(A) -57.9% (inactive)

(Q) Quick check: inhibition of `CCN=c1scc(-c2ccco2)n1/N=C/c1ccc(OC)c(O)c1` ?
(A) -2.2% (inactive)

(Q) // query inhibition value for entry `O=C(Nc1ccccc1C(F)(F)F)c1ccc(CN2CCC(Cc3ccccc3)CC2)cc1`
(A) -22.3% (inactive)

(Q) # lookup: inhibition of O=C(Nc1ccc2c(c1)OCCO2)C1c2ccccc2C(=O)N2CCc3ccccc3C12 (stereo not drawn)
(A) 14.8% (inactive)

(Q) Which inhibition is reported for this molecule? `CCCCN(CCCC)S(=O)(=O)c1ccc(C(=O)Nc2nnc(CSC)o2)cc1`
(A) -15.3% (inactive)

(Q) Which value of inhibition has been reported for `Cc1ccc(CNC(=O)c2ccc(C#CC(C)(C)O)s2)cc1` in the records?
(A) 20.2% (inactive)

(Q) What value of measured inhibition is listed for `O=C(N1CCOCC1)C12CC3CC(C1)CC(c1ccccc1)(C3)C2` ?
(A) -20.7% (inactive)

(Q) Find the recorded inhibition belonging to `Cc1cc2nc(C3CCN(Cc4nnnn4Cc4ccccc4)CC3)[nH]c2cc1C` and report it.
(A) -140% (inactive)

(Q) Field request: inhibition | item: `CC1(C)Cc2c(sc3nc4n(c(=N)c23)CCC4)CO1`
(A) -9.9% (inactive)

(Q) // returns reported inhibition for input `CCOc1ccc(Cl)cc1/C=N/O`
(A) 10.1% (inactive)

(Q) Reported inhibition, molecule `CCCc1nc(NCc2ccccn2)c2nnn(Cc3ccccc3F)c2n1` : ____
(A) -1.1% (inactive)

(Q) inhibition lookup needed for `Nc1c(-c2ccc(Cl)cc2)cnn1-c1cccc([N+](=O)[O-])c1` , thanks.
(A) 2.9% (inactive)

(Q) Any idea what inhibition was measured for O=C1CC(SCCc2nc3ccccc3[nH]2)C(=O)N1c1ccc(Cl)cc1 (stereo not drawn) ?
(A) -15.3% (inactive)

(Q) Any idea what its inhibition is? The molecule is `O=C(CCN1C(=O)c2ccccc2C1=O)NC1=NCCS1`
(A) 8.9% (inactive)
